Each record here notes measured koff.
tested.system: SARS-CoV-2 Receptor Binding Domain (RBD) protein (SARS-CoV-2, UniProt P0DTC2 319-541)
experiment: SPR, scFv captured via anti-V5, RBD as analyte
readout.label: koff (s⁻¹)

1) COVID19_P19_F02 (scFv, V domains shown) VH: EVQLVESGGGLVQPGGSLRLSCAASGFTFSSYGMHWVRQAPGKGLEWVSAYSGSGGYTYFADSVKGRFTISRDNSKNTLYLQMNSLRAEDTAVYYCVTNMDNSRDYFPHYFHDMDVWGQGTLVTVSS VL: DIVMTQSPLSLPVTPGEPASISCKSSQSLLHINGFNYLDWFLQKPGQSPQLLIYLGSNRAPGVPDRFSGSGSGTDFTLKISRVEAEDVGVYYCQQSLQNPRTFGGGTKVEIKR; 0.00384
2) COVID19_P08_C08 (scFv, V domains shown) VH: EVQLVESGGGLVQPGGSLRLSCAASGFTFRNYAMHWVRQAPGKGLEWVSAVSSSGGSPYYADSVKGRFTISRDNSKNTLYLQMNSLRAEDTAVYYCVTNMDNSRDYFPHYFHDMDVWGQGTLVTVSS VL: DIVMTQSPLSLPVTPGEPASISCRSSQSLVHSDGDNYLNWYLQKPGQSPQLLIYSGSYRASGVPDRFSGSGSGTDFTLKISRVEAEDVGVYYCMQGTHWPLTFGGGTKVEIKR; 5.7e-05
3) COVID19_P20_C11 (scFv, V domains shown) VH: EVQLVESGGGLVQPGGSLRLSCAASGFTFSSYSMNWVRQAPGKGLEWVSGISGSGDRTYYADSVKGRFTISRDNSKNTLYLQMNSLRAEDTAVYYCSMQRDNSRDYFPHYFHDMDVWGQGTLVTVSS VL: DIVMTQSPLSLPVTPGEPASISCRSSQSLLYSDGDTYLDWYLQKPGQSPQLLIYLGSIRAPGVPDRFSGSGSGTDFTLKISRVEAEDVGVYYCMQSVQTPWTFGGGTKVEIKR; 0.000607
